# Test system: MS2 coat protein
# Assay info: apparent KD of MS2 coat protein; designed switch direction (-1 OFF switch, 1 ON switch): -1; higher = weaker reporter binding
# Condition description: input ligand: none
Parameter: apparent KD of MS2 coat protein (nM)
Give the number; nM is assumed, so skip it.

-- ask Sample CUGGAUAGAGGAUAUUGUACUGCUGACAUGAGGAUCACCCAUGUAUGUUAACUCGGCCGUCGAGAAGGCUAACAAA [BotMod 14 - Jieux - Exclusion 5] (Eterna round: R97, puzzle: Exclusion 5) — what was its apparent KD of MS2 coat protein?
-- reply 33.4

More entries:
-- ask Sample ACUUAUUGAGGAUAUACAUUAAAUUACAUGAGGAUCACCCAUGUUCUUCAAUGUAUAUAUGCAGAAGGCAGAAGAA [JL-ex5-4.28 Malcolm mod] (Eterna round: R97, puzzle: Exclusion 5) — what was its apparent KD of MS2 coat protein?
-- reply 12.8

-- ask Sample CGUAAGGUAGGAUAUACAUGAGGAUCACCCAUGUCCCACCCGUUACCUAUGACCAUAUGUAGAAGGACCAAUGC [Exy#10] (Eterna round: R97, puzzle: Exclusion 3) — what was its apparent KD of MS2 coat protein?
-- reply 22.7

---

# System: MS2 coat protein
# Assay info: apparent KD of MS2 coat protein; designed switch direction (-1 OFF switch, 1 ON switch): 1; higher = weaker reporter binding
# Condition description: Eterna round: R95; input ligand: none
Think of 50 nM as a floor: if apparent KD of MS2 coat protein stands on it or above, it is satisfied; beneath it, not satisfied.

-- ask Hi, just wondering whether UUAUAACAUGAGGAUCACCCAUGUCAACAAAGUCGAGGAUAUGGGCAGAGAGGAGAAGAACCAGAAGGCGAAUAUU [Mat - Same State 1 - Mod of UCT - D38] (puzzle: Same State 1) shows apparent KD of MS2 coat protein of 50 nM or higher.
-- reply satisfied

-- ask Hi, just wondering whether UAGAGAGGAAGCGAGGAUAUCGUGGGAGGGACAUGAGGAUCACCCAUGUAUGAUGUUGAGAGGAACGAGAAGGCGCAGGAAAGUA [JR_SS2_Sub077] (puzzle: Same State 2) shows apparent KD of MS2 coat protein of 50 nM or higher.
-- reply satisfied

More entries:
-- ask Hi, just wondering whether AGCUAUCGAAAACGAUAGCAAAAGCAUGUACAUGAGGAUCACCCAUGUCAUGUACAAGCUUUUUGCUCGUUUUAAAA [Zipper 23 - 15] (puzzle: Sensor for hsa-mir-208a) shows apparent KD of MS2 coat protein of 50 nM or higher.
-- reply satisfied

-- ask Hi, just wondering whether UUAAAACAUGAGGAUCACCCAUGUCAACAAAGUCGAGGAUAUGGGCAAUUAUUAUUAGAACCAGAAGGCGAAUAUU [Mat - Same State 1 - Mod of UCT - D28] (puzzle: Same State 1) shows apparent KD of MS2 coat protein of 50 nM or higher.
-- reply satisfied

-- ask Hi, just wondering whether AACAAUUAACAUGAGGAUCACCCAUGUAUUACUUCGUGUUUUUGCUCGUCUUAUGUUAGGUUCGAUAGAGCUUAACA [Improved] (puzzle: Sensor for hsa-mir-208a version 2) shows apparent KD of MS2 coat protein of 50 nM or higher.
-- reply not satisfied

---

# System: MS2 coat protein
# Assay info: apparent KD of MS2 coat protein; designed switch direction (-1 OFF switch, 1 ON switch): 1; higher = weaker reporter binding
# Condition description: input ligand: none
# apparent KD of MS2 coat protein binned as low class: < 70 nM; middle class: ≥ 70 nM and < 200 nM; high class: ≥ 200 nM

-- ask Class (by measured apparent KD of MS2 coat protein) for UUAAUUUACUGAGGAUAUCGUGUCGACUGAGUUGACAUGAGGAUCACCCAUGUGUGAAGUGGUAUCGAGAAGGCAGUUUUCUUA [JR_SSNG2_Sub026] (Eterna round: R96, puzzle: Same State NG 2)
-- reply middle class

More entries:
-- ask Class (by measured apparent KD of MS2 coat protein) for UUGAAGAAUUAAGGAUAUUGAGUACAUAUGUUUAACAUGAGGAUCACCCAUGUGGGUUGCGGUAUCGAGAAGGUAAAUUACUAG [JL SSNG2 1.45] (Eterna round: R96, puzzle: Same State NG 2)
-- reply middle class

-- ask Class (by measured apparent KD of MS2 coat protein) for UGAAUAGUUACAGGAUAUGAGUUGUAAAUUGGGUCAGAAGGGUGGGUGUUUUGCGCGGUGUGUUACAUGAGGAUCACCCAUGUU [SameState NG1 #28] (Eterna round: R96, puzzle: Same State NG 1)
-- reply middle class

-- ask Class (by measured apparent KD of MS2 coat protein) for ACAUGAGAAUUAGGAUAUAUAGUACCUACAUGUGACAUGAGGAUCACCCAUGUGGUAAGUAUGACAUAGAAGGAAUAGAUAUGU [Equivalance 97 - Jieux - Same State NG 2] (Eterna round: R96, puzzle: Same State NG 2)
-- reply low class

-- ask Class (by measured apparent KD of MS2 coat protein) for AAACACGGCAAAACGCCGUGACAUGAGGAUCACCCAUGUACACAGGAUAUCAUGGCAAAACACCAUGAGAAGGGUGAUCAAGAC [Zaleala] (Eterna round: R96, puzzle: Same State NG 3)
-- reply low class

-- ask Class (by measured apparent KD of MS2 coat protein) for GCUACCAUUGAAGCCUACAUGAGGAUCACCCAUGUAUGUAGGCAGGAUAUCGAUUGCAAAGCGAUCGAGAAGGGCUUAGGUAGC [Mat - Same State NG 3 - JL Mod - D90] (Eterna round: R96, puzzle: Same State NG 3)
-- reply middle class

---

apparent KD of MS2 coat protein overview
# Tested on: MS2 coat protein
# Assay info: apparent KD of MS2 coat protein; designed switch direction (-1 OFF switch, 1 ON switch): -1; higher = weaker reporter binding
# Condition description: Eterna round: R95; input ligand: none
Give the number; nM is assumed, so skip it.

Some entries whose results are on file:
-- ask Sample UUCCUACAUGAGGAUCACCCAUGUGAGGAUAUGCAUCGUAUUAUUCUCGUAUGUAGUAGCAGAAGGCGCAUUGG [Starry Exclusion 1.1] (puzzle: Exclusion 1) — what was its apparent KD of MS2 coat protein?
-- reply 31.2

-- ask Sample CGUGUCUUUCACGUGAGUGGUGGGUGCAACAGGUGGGUUACAUGAGGAUCACCCAUGUCCUCACUUGCUCGUCUUUU [Grok-var2-04] (puzzle: Sensor v3, turn-off variant 2) — what was its apparent KD of MS2 coat protein?
-- reply 37.2

Shifting focus to the sequence that follows.
-- ask Sample AGUGCUGGCGCGUCGGUGUUGGUGCAAUAAGCUUGUGAAACAUGAGGAUCACCCAUGUCCUCAUAAGCUCGUCUUAU [salish99_TOv2_r2_085] (puzzle: Sensor v3, turn-off variant 2) — what was its apparent KD of MS2 coat protein?
-- reply 15.8

---

# Tested on: K4 kissing-loop RNA reporter;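 also: bound reporter read as fluorescence of individual clusters on recovered sequencing chips by microscopy, with normalized cluster intensities fitted with a binding model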
# Assay info: apparent KD of K4 kissing-loop reporter; higher = weaker reporter binding
# Condition description: Eterna round: R107; input ligand: none
Think of 400 nM as a floor: if apparent KD of K4 kissing-loop reporter stands on it or above, it is Fulfilled; beneath it, Not fulfilled.

-- ask Hi, just wondering whether GGUGACAACCAGGAGUGAUGUAUAGAAUAGCGAGGACCGGUACGGCCGCCACUCGUGAAGAGAAAGGAGUGAUGUUCCGUAAUGG [Kazoo C3] shows apparent KD of K4 kissing-loop reporter of 400 nM or higher.
-- reply Not fulfilled

More entries:
-- ask Hi, just wondering whether UGCUUAAUGGAAGGAUAUUAGGGUUCGACCGCGUAUCAUUGUUAGUCUGGCCAGUGAUGUUGGCCUUAAGAAGGUCCGCUACGGU [theeternabot_exclusion_KL_FMN_B_27] shows apparent KD of K4 kissing-loop reporter of 400 nM or higher.
-- reply Not fulfilled

-- ask Hi, just wondering whether CGCAAGCAGCCAGUGAUGUUGGCCGCCUUGCGAGGACCGGUACGGCCGCCACUCGAAGGCGGCUAGUAGUAGUCUGUCUAACGGA [KL-XTryp-A16] shows apparent KD of K4 kissing-loop reporter of 400 nM or higher.
-- reply Not fulfilled

-- ask Hi, just wondering whether CUUGAUGGAAACAUCGAGUAGAUUACUGAUACCAGUAUCGAUAGAUACCCUUGGCAGCAGAAUCAGUGAUCACGAGUGAUGUUCG [Ex Theophylline A K4 8] shows apparent KD of K4 kissing-loop reporter of 400 nM or higher.
-- reply Fulfilled

-- ask Hi, just wondering whether AGUUCUUGCCGAAGGAGCGAGGCAGAGUGAUGUUCUGCAGGAGGUCGAAAGACCUCCCUGCCUCAGGUAGGUCGCGGCAUGAACA [Omei KL Arginine B Exc A v1] shows apparent KD of K4 kissing-loop reporter of 400 nM or higher.
-- reply Fulfilled
